IC50 values for the molecules below.
Biological target: UniProt:P0DTD1
Experiment: RdRp inhibition (nsp12/nsp7L8/nsp8 complex, ProFoldin kit)
Conditions: triplicate

Which measured IC50 value corresponds to O=C(O[C@@H]1Cc2c(O)cc(O)cc2O[C@@H]1c1cc(O)c(=O)c2c(O)c(O)cc([C@H]3Oc4cc(O)cc(O)c4C[C@H]3O)c2c1)c1cc(O)c(O)c(O)c1 [theaflavin-3-gallate] ?
> 100 µM

Please give the measured IC50 for this molecule: O=C(O[C@@H]1Cc2c(O)cc(O)cc2O[C@@H]1c1cc(O)c(=O)c2c(O)c(O)c(O)cc2c1)c1cc(O)c(O)c(O)c1 [epitheaflagallin-3-O-gallate]
> 100 µM

Next:
Quick one: IC50 for Oc1cc(O)c2c(c1)OC(c1ccc(O)c(O)c1)C(O)C2 (stereo not drawn) ?
> 100 µM
